Assay: in vitro
Settings: human
PARAMETER: CC50 (µg/mL)
// note: answer is a bare numeric in µg/mL

q: What does the data say about its CC50? Entry: CC(C)c1ccc2c(c1)OC1(O)c3cccc(N)c3C(=O)C21NC(=O)c1nc2ccccc2[nH]1 (stereo not shown)
a: 4.51

q: What does the data say about its CC50? Entry: CC(C)c1ccc2c(c1)OC1(O)c3cccc(N)c3C(=O)C21NC(=O)c1cc2ccccc2c(=O)[nH]1 (stereo not shown)
a: 4.04

---

I'd appreciate it if you could supply CC50 values for the items below.
Assay: in vitro
Settings: human
// note: answer is a bare numeric in µg/mL

q: What does the data say about its CC50? Entry: CC(C)c1ccc2c(c1)OC1(O)c3cccc(N)c3C(=O)C21NC(=O)c1ccccc1 (stereo not shown)
a: 16

q: What does the data say about its CC50? Entry: CC(C)c1ccc2c(c1)OC1(O)c3ccccc3C(=O)C21NC(=O)c1ccc([N+](=O)[O-])s1 (stereo not shown)
a: 4.36

---

I'd appreciate it if you could supply melting point values for the items below.

q: What does the data say about its melting point? Entry: CC(C)NC(=O)Nc1cccc2c1C(=O)C1(O)c3ccc(C(C)C)cc3OC21O (centres unmarked) [Example 55]
a: 81 to 85 °C

q: What does the data say about its melting point? Entry: CC(=O)Nc1cccc2c1C(=O)C1(NC(C)=O)c3ccc(C(C)C)cc3OC21O (centres unmarked) [Example 57]
a: 189 to 191 °C

q: What does the data say about its melting point? Entry: CC(C)c1ccc2c(c1)O[C@@]1(O)c3cccc(O)c3C(=O)[C@@]21O [Example 43]
a: 205 to 207 °C

q: What does the data say about its melting point? Entry: COc1ccc2c(c1)OC1(O)c3ccccc3C(=O)C21O (centres unmarked) [Example 7]
a: 98 to 100 °C

q: What does the data say about its melting point? Entry: CCc1ccc2c(c1)OC1(O)c3ccc(O)cc3C(=O)C21O (centres unmarked) [Example 52]
a: 208 to 213 °C

q: What does the data say about its melting point? Entry: CCOC(=O)OC12Oc3cc(C(C)C)ccc3C1(OC(=O)OCC)C(=O)c1ccccc12 (centres unmarked) [Example 37]
a: 150 to 153 °C

q: What does the data say about its melting point? Entry: CC(C)c1ccc2c(c1)OC1(O)c3ccccc3C(=O)C21O (centres unmarked) [Example 10]
a: 195 to 198 °C

q: What does the data say about its melting point? Entry: CCOC(=O)N[C@@]12C(=O)c3ccccc3[C@]1(O)Oc1cc(C(C)C)ccc12
a: 115 to 118 °C

q: What does the data say about its melting point? Entry: CC(C)(C)c1cccc2c1OC1(O)c3ccccc3C(=O)C21O (centres unmarked) [Example 21]
a: 148 to 152 °C

q: What does the data say about its melting point? Entry: CCOC(=O)OC12Oc3cc(C(C)C)ccc3C1(O)C(=O)c1ccccc12 (centres unmarked) [Example 38]
a: 144 to 147 °C

q: What does the data say about its melting point? Entry: CC(=O)Nc1cccc2c1C(=O)C1(O)c3ccc(C(C)C)cc3OC21O (centres unmarked) [Example 48]
a: 152 to 154 °C

q: What does the data say about its melting point? Entry: CC(C)c1ccc2c(c1)OC1(OC(=O)C(C)(C)C)c3ccccc3C(=O)C21OC(=O)C(C)(C)C (centres unmarked) [Example 33]
a: 153 to 157 °C

q: What does the data say about its melting point? Entry: CCCCCCCCCc1ccc2c(c1)C1(O)C(=O)c3ccccc3C1(O)O2 (centres unmarked) [Example 26]
a: 108 to 110 °C

q: What does the data say about its melting point? Entry: CCCCCCCCCCCCCCCc1ccc2c(c1)C1(O)C(=O)c3ccccc3C1(O)O2 (centres unmarked) [Example 27]
a: 105 to 110 °C
